Reference for the values: patent US4376771A

Answer each item with its documented LD50.
test: Toxicity (LD 50), mice, intraperitoneal administration; type: in vivo; settings: mouse, in vivo, ip; mice, intraperitoneal administration

Compound	Reported property	Readout value
CC(Cl)C(=O)Nc1ccc(C2=NNC(=O)CC2C)cc1 (stereo not drawn) [Example 5]	LD50	231 mg/kg
CC(=O)Oc1ccccc1C(=O)O [Acetylsalicylic acid, acetylsalicylic acid, reference compound]	LD50	167 mg/kg

Please turn your attention to the following entry.
Lookup result for NNc1nnc(NN)c2ccccc12 [Dihydralazine, dihydralazine, reference compound] ; measured LD50: 106 mg/kg

====

I'd be grateful if you could share measured ED20 for these entries.
tested on: narcotized rats; test: Anti-hypertensive effect on narcotized rats; assay type: in vivo, male Sprague-Dawley rats; conditions: Rattus norvegicus, ip; rats, urethane narcosis, intraperitoneal; dose at which the blood pressure falls by 20%; read-out: Lowering of blood pressure ED 20%
Answers are plain numbers, in mg/kg.

Recorded results for 2 compounds are shown here.
Compound	Uom	Readout value
NNc1nnc(NN)c2ccccc12 [Dihydralazine, dihydralazine, reference compound]	mg/kg	0.34
CC(Cl)C(=O)Nc1ccc(C2=NNC(=O)CC2)cc1 (stereo not drawn) [Example 4]	mg/kg	0.53

Next item in the queue.
Measured ED20 (narcotized rats), entry CC(Cl)C(=O)Nc1ccc(C2=NNC(=O)CC2C)cc1 (stereo not drawn) [Example 5] : 0.0079
